Below, each entry is listed alongside its reported glycan array binding signal (z-score).
- experimentalTarget: Fuc(a1-2)[GalNAc(a1-3)]Gal(b1-3)GalNAc(a1-3)[Fuc(a1-2)]Gal(b1-4)GlcNAc
- measurementProtocol: glycan array binding signal (z-score within array); higher = stronger binding
- condition: glycan notation: IUPAC condensed, linker removed
Many of the other results were omitted from the sample, so the strongest signals are more common in it than they were.
Write no unit; give the number alone.

Completed entries (count: 2):
binder	recordedValue
BC2L-D C-terminal domain (Burkholderia cenocepacia), Q39MQ9_BURS3 (protein) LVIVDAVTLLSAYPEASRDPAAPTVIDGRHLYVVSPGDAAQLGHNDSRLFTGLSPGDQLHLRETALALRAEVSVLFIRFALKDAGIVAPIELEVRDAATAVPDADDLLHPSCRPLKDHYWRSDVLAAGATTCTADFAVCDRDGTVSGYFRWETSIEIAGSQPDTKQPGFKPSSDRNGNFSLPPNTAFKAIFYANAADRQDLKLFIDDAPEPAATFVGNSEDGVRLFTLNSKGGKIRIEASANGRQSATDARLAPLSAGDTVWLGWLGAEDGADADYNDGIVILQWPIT	-0.169
CFEM-CGl (Candida glabrata), Q6FRS0 (protein) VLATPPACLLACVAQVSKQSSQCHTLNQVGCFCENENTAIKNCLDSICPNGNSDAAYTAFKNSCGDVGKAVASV	-0.609

For the next question, use this binder.
Give its glycan array binding signal (z-score) value. Item: SBD-G4S3-SBD (protein) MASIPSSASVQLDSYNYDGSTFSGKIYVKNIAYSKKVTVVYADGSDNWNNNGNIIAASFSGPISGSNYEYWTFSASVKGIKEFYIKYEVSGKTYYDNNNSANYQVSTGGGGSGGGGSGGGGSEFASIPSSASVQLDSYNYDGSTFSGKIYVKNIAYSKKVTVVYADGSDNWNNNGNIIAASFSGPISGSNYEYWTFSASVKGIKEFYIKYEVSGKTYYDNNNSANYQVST
1.17
